test system: Zea mays (ZEAMX); format: in vivo; conditions: crop plant compatibility, 80 g/ha, effect vs untreated controls
measured-metric: Post-emergence action against ZEAMX in % (%)

As a guide, the following entries are already answered.
COC(=O)CCOC(=O)[C@@H](C)Oc1nn(-c2ccccn2)c(-c2ccc(Cl)nc2)c1Br ... 20
CCOC(=O)COc1nn(-c2ncccc2OC)c(-c2ccc(F)nc2)c1Br ... 20
COCCOC(=O)COc1nn(-c2ncccc2C(F)(F)F)c(-c2ccc(F)nc2)c1Br ... 10
O=C(O)COc1nn(-c2ncccc2C(F)(F)F)c(-c2ccc(F)nc2)c1Br ... 0
COCCOC(=O)COc1nn(-c2cccc(C)n2)c(-c2ccc(F)nc2)c1Br ... 10

A: Cc1cccc(-n2nc(OCC(=O)O)c(Cl)c2-c2ccc(F)nc2)n1
B: COC(=O)CNC(=O)COc1nn(-c2cccnc2C)c(-c2cncc(F)c2)c1Br
C: O=C(O)CNC(=O)COc1nn(-c2ccnc(F)c2)c(-c2ccc(F)nc2)c1Br
Exam item: Please order the records by their reported Post-emergence action against ZEAMX in %, lowest number first. Your answer should be the labels, listed in the requested order.
Marked response: B, A, C

###

tested on: Verconica persica (VERPE); experiment: Post-emergence herbicidal action against VERPE; format: in vivo; details: 320 g/ha, VERPE
measured-metric: Post-emergence action against VERPE in % (%)
Express your answer in %, writing the number without its unit.

CCOC(=O)[C@@H](C)Oc1nn(-c2ncccc2F)c(-c2ccc(F)nc2)c1F ... 90
CCOC(=O)COc1nn(-c2ccncc2F)c(-c2ccc(F)nc2)c1Br ... 80
COC(=O)COc1nn(-c2ncccc2F)c(-c2cncc(F)c2)c1Br ... 90
COC(=O)[C@@H](C)Oc1nn(-c2nc(F)ccc2F)c(-c2cncc(F)c2)c1C1CC1 ... 90
CCOC(=O)COc1nn(-c2nc(F)ccc2F)c(-c2ccc(F)nc2)c1Br ... 80

# Post-emergence action against VERPE in % of COC(=O)[C@@H](C)Oc1nn(-c2ncccc2F)c(-c2ccc(F)nc2)c1C(F)(F)F = 90

# Post-emergence action against VERPE in % of O=C(COc1nn(-c2ncccc2F)c(-c2ccc(F)nc2)c1C1CC1)OCC(F)(F)F = 90

# Post-emergence action against VERPE in % of COC(=O)[C@@H](C)Oc1nn(-c2nc(F)ccc2F)c(-c2ccc(F)nc2)c1Br = 80

###

system: Lolium rigidum (LOLRI); experiment: Post-emergence herbicidal action against LOLRI; type: in vivo; conditions: dosage 80 g/ha
measured-metric: Post-emergence action against LOLRI in % (%)
Express your answer in %, writing the number without its unit.

As a guide, the following entries are already answered.
CCOC(=O)[C@@H](C)Oc1nn(-c2ccccn2)c(-c2cncc(F)c2)c1Cl [Example I-184] ... 90
COC(=O)CNC(=O)[C@@H](C)Oc1nn(-c2ccccn2)c(-c2cncc(F)c2)c1Br [Example I-187] ... 90
CCOC(=O)[C@@H](C)Oc1nn(-c2ncccc2F)c(-c2ccc(F)nc2)c1C(F)(F)F [Example I-308] ... 90

Let me check: COC(=O)CCOC(=O)COc1nn(-c2ncccc2F)c(-c2ccc(F)nc2)c1C1CC1 [Example I-383] , system Lolium rigidum (LOLRI), measured Post-emergence action against LOLRI in % is 80

Let me check: COCCOC(=O)COc1nn(-c2ccccn2)c(-c2ccc(F)nc2)c1Br [Example I-96] , system Lolium rigidum (LOLRI), measured Post-emergence action against LOLRI in % is 90

###

test system: Verconica persica (VERPE); experiment: Pre-emergence herbicidal action against VERPE; assay type: in vivo; conditions: dosage 320 g/ha
This section presents molecules with their documented Pre-emergence action against VERPE in % values.
Express your answer in %, writing the number without its unit.

As a guide, the following entries are already answered.
CC(NC(=O)[C@@H](C)Oc1nn(-c2ccccn2)c(-c2ccc(F)nc2)c1Cl)C(=O)O (some centres unmarked) ... 100
COC(=O)[C@@H](C)Oc1nn(-c2ncccc2Cl)c(-c2ccc(F)nc2)c1Br ... 100
CCOC(=O)COc1nn(-c2ncccc2F)c(-c2ccc(F)nc2)c1Br [Example I-39] ... 100
CCOC(=O)[C@@H](C)Oc1nn(-c2ccccn2)c(-c2ccc(F)nc2)c1Br ... 100

# Pre-emergence action against VERPE in % of COC(=O)C(C)COC(=O)[C@@H](C)Oc1nn(-c2ccccn2)c(-c2cncc(F)c2)c1Cl (some centres unmarked) = 100

# Pre-emergence action against VERPE in % of COC(=O)CNC(=O)[C@@H](C)Oc1nn(-c2ccccn2)c(-c2cncc(F)c2)c1Cl = 90

# Pre-emergence action against VERPE in % of CCOC(=O)CCNC(=O)COc1nn(-c2ncccc2F)c(-c2ccc(OC)nc2)c1Br = 90

# Pre-emergence action against VERPE in % of COCCOC(=O)COc1nn(-c2ncccc2C(F)(F)F)c(-c2cncc(F)c2)c1Br = 90

###

system: Oryza sativa (ORYSA); format: in vivo; details: crop plant compatibility, 20 g/ha, effect vs untreated controls
measured-metric: Post-emergence action against ORYSA in % (%)

As a guide, the following entries are already answered.
COC(=O)[C@@H](C)NC(=O)COc1nn(-c2ccccn2)c(-c2ccnc(F)c2)c1Br ... 0
CCOC(=O)COc1nn(-c2cccnc2C)c(-c2ccc(F)nc2)c1Br ... 0

I: COCCOC(=O)COc1nn(-c2cccnc2C)c(-c2cncc(F)c2)c1Br
II: COC(=O)C(C)OC(=O)C(C)Oc1nn(-c2ccccn2)c(-c2ccc(F)nc2)c1Cl (stereo not shown)
Exam item: Min Post-emergence action against ORYSA in %? I | II Mark your selection by writing its label.
Marked response: I

###

This section presents compounds with their documented Post-emergence action against ALOMY in % values.
test system: Alopecurus myosuroides (ALOMY); assay: Post-emergence herbicidal action against ALOMY; format: in vivo; settings: 80 g/ha, visual rating about 3 weeks after treatment vs untreated controls (100% = plants have died, 0% = like control plants)
Express your answer in %, writing the number without its unit.

# Post-emergence action against ALOMY in % of COC(=O)C(C)COC(=O)C(C)Oc1nn(-c2ccccn2)c(-c2ccc(F)nc2)c1Cl (stereo not shown) = 80

# Post-emergence action against ALOMY in % of O=C(O)COc1nn(-c2ncccc2F)c(-c2ccc(F)nc2)c1C1CC1 = 90

# Post-emergence action against ALOMY in % of COC(=O)[C@@H](C)Oc1nn(-c2ncccc2F)c(-c2ccc(F)nc2)c1I = 80

# Post-emergence action against ALOMY in % of COC(=O)[C@H](C)COC(=O)[C@@H](C)Oc1nn(-c2ccccn2)c(-c2ccc(F)nc2)c1Cl = 80

###

tested on: Brassica napus (BRSNW); type: in vivo; details: 80 g/ha, crop plant compatibility, in comparison to untreated controls
measured-metric: Pre-emergence action against BRSNW in % (%)

As a guide, the following entries are already answered.
CCOC(=O)COc1nn(-c2ccccn2)c(-c2cncc(F)c2)c1Cl ... 0
COC(=O)CCOC(=O)COc1nn(-c2ccccn2)c(-c2cncc(F)c2)c1C1CC1 ... 0
CCOC(=O)COc1nn(-c2ncccc2C(F)(F)F)c(-c2ccc(F)nc2)c1Cl ... 20
O=C(O)COc1nn(-c2ccccn2)c(-c2cncc(F)c2)c1C1CC1 ... 10

P: O=C(O)COc1nn(-c2ccnc(Cl)c2)c(-c2ccc(F)nc2)c1Br
Q: COC(=O)C1CCN(C(=O)COc2nn(-c3ccccn3)c(-c3ccc(F)nc3)c2Br)C1 (stereo not drawn)
Exam item: Min Pre-emergence action against BRSNW in %? P | Q Mark your selection by writing its label.
Marked response: P
(P: 0%, Q: 10%)

P: CCOC(=O)COc1nn(-c2cccc(C)n2)c(-c2ccc(F)nc2)c1Br
Q: COC(=O)CCOC(=O)COc1nn(-c2ncccc2F)c(-c2ccc(F)nc2)c1Cl
Exam item: Min Pre-emergence action against BRSNW in %? P | Q Mark your selection by writing its label.
Marked response: Q

1: CC(=O)CNC(=O)COc1nn(-c2ccnc(F)c2)c(-c2ccc(F)nc2)c1Br
2: O=C(O)CSc1nn(-c2ccccn2)c(-c2ccc(F)nc2)c1Br
Exam item: Pre-emergence action against BRSNW in % comparison. Which is larger, 1 or 2 ? Mark your selection by writing its label.
Marked response: 2

###

tested on: Zea mays (ZEAMX); type: in vivo; details: 20 g/ha, ZEAMX, effect in comparison to untreated controls
measured-metric: Post-emergence action against ZEAMX in % (crop plant compatibility) (%)

CCOC(=O)COc1nn(-c2ncccc2F)c(-c2ccc(F)nc2)c1Br [Example I-39] ... 0

1: CC(C)=NOC(=O)COc1nn(-c2ncccc2F)c(-c2ccc(F)nc2)c1C1CC1
2: CCOC(=O)COc1nn(-c2ccccn2)c(-c2ccc(F)nc2)c1C1CC1(F)F (stereo not shown)
3: CCOC(=O)[C@@H](C)Oc1nn(-c2ncccc2F)c(-c2ccc(F)nc2)c1Cl
Exam item: Please order the records by their reported Post-emergence action against ZEAMX in % (crop plant compatibility), lowest number first. Your answer should be the labels, listed in the requested order.
Marked response: 2, 1, 3
